Measured EC50 by item
Biological target: UT-B (Homo sapiens, UniProt Q13336)
Sequence (Q13336 1-389): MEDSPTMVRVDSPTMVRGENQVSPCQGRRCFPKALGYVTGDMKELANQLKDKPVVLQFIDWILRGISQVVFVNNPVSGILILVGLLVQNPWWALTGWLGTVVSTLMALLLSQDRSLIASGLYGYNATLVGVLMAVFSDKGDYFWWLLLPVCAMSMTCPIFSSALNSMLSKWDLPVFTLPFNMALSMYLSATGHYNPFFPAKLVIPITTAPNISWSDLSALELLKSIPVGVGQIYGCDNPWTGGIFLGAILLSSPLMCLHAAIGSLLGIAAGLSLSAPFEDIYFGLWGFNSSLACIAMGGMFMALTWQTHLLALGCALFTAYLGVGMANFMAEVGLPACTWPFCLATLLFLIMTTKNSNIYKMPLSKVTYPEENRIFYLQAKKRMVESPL
Test: RBC lysis assay (human RBCs, acetamide-loaded)
ATTRIBUTE_MEASURED: EC50 (µM)

>>> reported("NC(=O)CSc1oc(-c2ccccc2)nc1S(=O)(=O)c1ccc(Cl)cc1 [ureainh-102]")
0.04
>>> reported("O=C(Sc1[nH]c(-c2ccccc2)nc1S(=O)(=O)c1ccccc1)c1ccccc1 [ureainh-132]")
7
>>> reported("NC(=O)CSc1oc(-c2cccs2)nc1S(=O)(=O)c1ccc(Cl)cc1 [ureainh-113]")
0.02
>>> reported("O=S(=O)(c1ccc(Cl)cc1)c1nc(-c2ccccc2F)oc1NCc1ccccc1 [ureainh-120]")
1
>>> reported("O=C(CSc1oc(-c2ccccc2)nc1S(=O)(=O)c1ccc(Cl)cc1)NCc1ccco1 [ureainh-122]")
15
>>> reported("NC(=O)CSc1oc(-c2ccc(F)cc2)nc1S(=O)(=O)c1ccc(Cl)cc1 [ureainh-106]")
0.2
>>> reported("NC(=O)CSc1oc(-c2cccs2)nc1S(=O)(=O)c1ccccc1 [ureainh-116]")
1
>>> reported("NC(=O)CSc1oc(-c2ccc(F)cc2)nc1S(=O)(=O)c1ccccc1 [ureainh-108]")
15
>>> reported("Cc1ccc(S(=O)(=O)c2nc(-c3ccc(F)cc3)oc2SCC(N)=O)cc1 [ureainh-105]")
0.1
>>> reported("O=C(CSc1oc(-c2ccccc2)nc1S(=O)(=O)c1ccc(Br)cc1)NCc1ccco1 [ureainh-121]")
4
>>> reported("NC(=O)CSc1oc(-c2cccs2)nc1S(=O)(=O)c1ccc(F)cc1 [ureainh-115]")
0.6
>>> reported("Cc1ccc(S(=O)(=O)c2nc(-c3ccccc3)[nH]c2S)cc1 [ureainh-131, 2-phenyl-4-tosyl-1H-imidazole-5-thiol]")
6
>>> reported("CN(C)c1oc(-c2ccccc2Cl)nc1S(=O)(=O)c1ccccc1 [ureainh-123]")
5
